- method: chemical genetic growth profiling, strain panel (AID 1159580);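 also: tested at 20 µM; growth read once vehicle control cultures reached saturation at 30 °C; 1 = growth at the plate median or of vehicle wells; lower values mean less growth of the strain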
- settings: S. cerevisiae deletion strains, growth OD, locus YMR307W, strain GAS1, hits give low values
Among all 5,500 compounds or so, about 2,000 (36%) were called active. Roughly 18% stayed inconclusive and do not appear here. This is one part of the list. Where a SMILES comes first, the peptide text is derived from it.
reportedProperty: normalized growth

INSERT INTO results (compound, measurement) VALUES
  ('CCN1C[C@@]2(COC)C3[C@@H](OC)[C@H]4[C@@H]1[C@]3(C(OC)C[C@H]2O)C1C[C@@]2(O)[C@H](OC(=O)c3ccccc3)C1[C@]4(OC(C)=O)[C@@H](O)[C@@H]2OC (stereo partly drawn)', '1.01 (inactive)'),
  ('CCCCCCCCCCCC(=O)OCC(COP(=O)(O)OCC(O)COP(=O)(O)OCC(COC(=O)CCCCCCCCCCC)OC(=O)CCCCCCCCCCC)OC(=O)CCCCCCCCCCC (stereo not drawn)', '0.475 (active)'),
  ('COc1c(C)c2c(c(O)c1C/C=C(\C)CCC(=O)O)C(=O)OC2', '0.8 (inactive)'),
  ('c1ccc(CN2CCC3(CCCc4ccccc43)CC2)cc1', '1 (inactive)'),
  ('CCOC(=O)c1sc2sc(C(=O)c3ccc(Cl)cc3)c(C)c2c1C', '1.07 (inactive)'),
  ('NC(C(=O)O)C(O)C(=O)O (stereo not drawn)', '1.08 (inactive)'),
  ('OCc1nccn1Cc1ccc(Cl)cc1', '1.51 [resistant] (active)'),
  ('CC(C)(C)NC(=S)NC1CCN(Cc2ccccc2)CC1', '0.987 (inactive)'),
  ('Cc1onc(-c2ccccc2Cl)c1C(=O)N1CCCN2C(=O)c3ccccc3C21 (stereo not drawn)', '0.992 (inactive)'),
  ('O=C(O)C(O)C(O)C(=O)O (stereo not drawn)', '0.921 (inactive)'),
  ('CC(=O)N[C@@H](CCC(=O)O)C(=O)O', '1.04 (inactive)'),
  ('COC1C=CC23c4cc5c(cc4CN(CC2O)[C@@H]3C1)OCO5 (stereo partly drawn)', '1.06 (inactive)'),
  ('CC(=O)NC(CCC(=O)O)C(=O)O (stereo not drawn)', '1.1 (inactive)'),
  ('OC[C@H]1O[C@@H](n2cnc3c(NCc4ccco4)ncnc32)[C@H](O)[C@@H]1O', '1.04 (inactive)'),
  ('Cn1c(=S)[nH]c2cc(C(F)(F)F)ccc21', '0.718 (inactive)'),
  ('CCCc1c(-c2ccc(O)cc2)nn(-c2ccc(O)cc2)c1-c1ccc(O)cc1', '1.01 (inactive)'),
  ('NCCCC(=O)O', '1.02 (inactive)'),
  ('NCCCCCC(=O)O', '0.893 (inactive)'),
  ('O=C(O)C(O)C(O)C(O)C(O)C(=O)O (stereo not drawn)', '1.1 (inactive)'),
  ('Clc1ccc(COC(Cn2ccnc2)c2ccc(Cl)cc2Cl)cc1 (stereo not drawn)', '0.123 (active)'),
  ('CC[C@H](CO)Nc1nc(NCc2ccccc2)c2ncn(C(C)C)c2n1', '0.967 (inactive)'),
  ('CC(=O)N[C@@H](CC(=O)O)C(=O)N[C@@H](CCC(=O)O)C(=O)O (Ac-Asp-Glu-OH)', '1.01 (inactive)'),
  ('CC(C)/C(O)=C1/C(=O)O[C@@H](c2ccoc2)[C@]2(C)C(O)[C@@H](O)[C@@]34OC5(C)OC67CC(C)(C(O)[C@]6(O)[C@@H](O)[C@]3(O5)C12)[C@H](CC(=O)O)[C@]74C (stereo partly drawn)', '0.982 (inactive)');
